# Tested on: NCI-H460 lung
# RUN DESCRIPTION: NCI-60 one-dose screen, 48 h
# MEASUREMENT SETUP: 10 µM
Compounds without any hit were thinned out: in the full panel of roughly 83,000, 20% have a hit. Active and inactive are the calls of the source. Rule for the calls: active = growth percent below 10; inactive = the rest.
Pick one: active, inactive

Observe how each entry below is paired with its result.
[[record]]
compound = "COc1ccc(CN2[C@H](C(=O)NCCCCCCC(=O)NO)Cc3c([nH]c4ccccc34)[C@H]2C2CC2)cc1"
assigned_label = "active"

[[record]]
compound = "O=c1[nH]c2ccc(Cl)cc2cc1CSc1ccc(Nc2nccc(-c3ccc(Cl)cc3)n2)cc1"
assigned_label = "active"

[[record]]
compound = "O=c1[nH]c2ccccc2cc1CSc1ccc(Nc2nccc(-c3ccc(C(F)(F)F)cc3)n2)cc1"
assigned_label = "active"

[[record]]
compound = "O=c1[nH][nH]c(Nc2ccccc2)c1N=Nc1ccc(F)cc1"
assigned_label = "inactive"

[[record]]
compound = "COC[C@@H](CC(C)C)N=C1N/C(=C\\c2ccc3ncsc3c2)C(=O)N1C"
assigned_label = "inactive"

[[record]]
compound = "CN1CCCN(Cc2ccc(C(=O)Nc3cccc(Nc4ccc5c(O)cccc5n4)c3)cc2C(F)(F)F)CC1"
assigned_label = "active"


Task: For Cc1ccc2nc(-c3ccc(-c4nnc(SCC(=O)Nc5ccc(Br)cc5)o4)cc3)[nH]c2c1 , which call appears in the assay record?
Output: inactive

Task: Try this compound too: CCN1CCN(Cc2ccc(NC(=O)c3cccc(-n4cc(-c5ccc(NC(C)=O)nc5)nn4)c3)cc2C(F)(F)F)CC1
Output: inactive

Task: Try this compound too: COc1ccc(N(C)c2cc(C#N)nc3ccccc23)cc1N
Output: active

Task: Try this compound too: O=C(N/N=C/c1ccc(B(O)O)o1)c1[nH]c2ccc(Br)cc2c1-c1ccccc1
Output: inactive

Task: Try this compound too: C#CCNC(=O)CCC(=O)OC[C@]12CC[C@@H](C(=C)C)[C@@H]1C1CC[C@@H]3[C@@]4(C)CCCNC(C)(C)[C@@H]4CC[C@@]3(C)[C@]1(C)CC2 (stereo partly drawn)
Output: active

Task: Try this compound too: Cc1cc(C)nc(/N=C(\N)Nc2ccc(S(=O)(=O)Nc3nc(C)cc(C)n3)cc2)n1
Output: inactive

Task: Try this compound too: O=c1oc2ccc(-c3ccc(F)cc3F)cc2c(=O)n1-c1ccc(Cl)c(C(F)(F)F)c1
Output: active

====

# Tested on: SF-268 CNS
# RUN DESCRIPTION: NCI-60 one-dose screen, 48 h (100 = growth as untreated, 0 = no growth, -100 = all killed)
# MEASUREMENT SETUP: 10 µM
The panel holds about 83,000 compounds, 20% with a hit somewhere; the sample as a whole holds those more often.
ENDPOINT: growth (%)
Please respond with the number in % and leave the unit unwritten.

[[record]]
compound = "C=C(C)[C@@H]1CC[C@]2(COP(=O)(OCC)OCC)CC[C@]3(C)[C@H](CC[C@@H]4[C@@](C)(CCCN)[C@H](C(=C)C)CC[C@]43C)[C@@H]12"
system_under_test = "SF-268 CNS"
readout_value = 42

[[record]]
compound = "CN1CCN(c2ccc(Nc3nc(NCCCNC(=O)c4ccc(Cl)cc4)c4sccc4n3)cc2)CC1"
system_under_test = "SF-268 CNS"
readout_value = 77

[[record]]
compound = "Cc1ccc(S(=O)(=O)c2nc(-c3ccccc3)oc2S(=O)(=O)CC(=O)N2CCCC2)cc1"
system_under_test = "SF-268 CNS"
readout_value = -0.601


Task: Would you mind telling me what growth value was observed for COc1ccc(/C=C/C(=O)c2ccc(S(=O)(=O)NCCNc3nc(Nc4ccc(F)cc4)nc(N(C)C)n3)cc2)cc1 ?
Output: 25.8

Task: Try this compound too: N#Cc1c(Cl)nc(SCc2ccc(F)cc2)nc1-c1ccc(F)cc1
Output: 96.2

Task: Try this compound too: O=c1oc2ccc(-c3ccc(F)cc3F)cc2c(=O)n1-c1ccc(Cl)c(C(F)(F)F)c1
Output: 12

Task: Try this compound too: COc1ccc2c3nc4cc(C)c(C)cc4nc3n(CCN(C)C)c2c1
Output: 27.8

Task: Try this compound too: Cc1ccc(/C(CSc2nnc(-c3c[nH]c4ccccc34)n2-c2ccccc2)=N/O)cc1
Output: -60.1

Task: Try this compound too: CN1CCN(Cc2ccc(NC(=O)c3cncc(C#Cc4cnc5ccc(N[C@@H]6CCOC6)nn45)c3)cc2C(F)(F)F)CC1
Output: -80.7

Task: Try this compound too: O=c1[nH]c2ccccc2cc1CSc1ccc(Nc2nccc(-c3ccc(Cl)cc3)n2)cc1
Output: 2.16

Task: Try this compound too: Cn1cc(/C=N/Nc2cccc(Cl)n2)c2ccccc21
Output: 56
